system: S. aureus (MN8); format: cell-based, Staphylococcus aureus
READOUT: CFU/mL (E + 09 CFU/mL)
Give the value in E + 09 CFU/mL but do not write E + 09 CFU/mL after it.

Which CFU/mL value belongs to CC1(O)CCC(C(C)(C)O)CC1 (stereo not shown) ?
2.0

Entry to check: C=CC(C)(O)CCC=C(C)C (stereo not shown)
2.0

* * *

system: TSST-1; type: cell-based, Staphylococcus aureus
Assignment: determine reported ng TSST-1 per OD Unit for the given molecules.
Lab book: enter the figure in ng TSST-1 per OD Unit, no units written.

Quick one: ng TSST-1 per OD Unit of C=CC(C)(O)CCC=C(C)C (stereo not shown) [Linalool] ?
421

Now the same for CC(C)=CCC/C(C)=C/CO [Geraniol]
26

Query CC1(O)CCC(C(C)(C)O)CC1 (stereo not shown) [p-menthane-1,8-diol] next
792
